- target: native VAR2CSA on FCR3-CSA infected erythrocytes (Plasmodium falciparum FCR3, UniProt Q6UDW7, strain)
- experiment: flow cytometry on cells

binder	binding result
VHH891 (VHH) VHH: QVQLQESGGGLVQTGDSLRLSCAASGRTFSSYAMGWFRQAPGKEREFVAAITWGDGSADYADSVKGRFTISRDNAENTVYLQMNSLKPEDTAVYYCAAETVGAPIYTLGYSEAYDYWGQGTQVTVSS	binds
